Where do the numbers come from? From BigSolDB 2.1.

- Experimental parameters: in n-butanol, 313.65 K
Reported endpoint: solubility (mole fraction)
Hey, just send me the number, nothing else.

Item C=CC(=O)NC(C)(C)CC(C)=O has what recorded solubility (mole fraction)?
0.681

###

- Experimental parameters: in ethyl formate, 283.25 K
Reported endpoint: solubility (mole fraction)
# respond with the number and nothing more

Quick check: solubility (mole fraction) of C=CC(=O)NC(C)(C)CC(C)=O ?
0.271

###

- Experimental parameters: in n-hexanol, 278.25 K
Reported endpoint: solubility (mole fraction)
Respond with the number and no other words.

Can you look up the measured solubility (mole fraction) of C=CC(=O)NC(C)(C)CC(C)=O for me?
0.194
